- protocol: RAM pathway blockade in budding yeast – dse1pr::URA3 reporter, 5-FOA selection, pilot screen (AID 869);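 note: 0% = DMSO wells with no growth and 100% = 10 µM 1-NA-PP1 with full growth; RAM network block rescues cells from 5-FOA so hits raise OD615 growth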
- experimental-setup: S. cerevisiae dse1pr::URA3 5-FOA growth, OD615, 2 d; at 10 µM; strain carries analog-sensitive mutant Cbk1 kinase
Activity calls are given as the source filed them.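 Rule for the calls: active = inhibition over a set limit, the all-compound mean plus 3 SD, in both replicate runs; inconclusive = over that limit in just one replicate run; inactive = at or under that limit in both runs.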
Assign a class; possible classes are active, inactive

Consider the worked cases shown below.
O=P(O)(CN1CCCCC1)C1CCCCC1O (centres undefined) | inactive
O=C(Cn1nc(Cc2ccncc2)c2ccccc2c1=O)N1CCc2ccccc2C1 | inactive
CCOc1ccccc1N1Cc2cc(C)c(C)cc2C1 | inactive
NC(=O)CN1C(=O)C(O)(CC(=O)c2ccccc2O)c2ccccc21 (centres undefined) | inactive
CC(NC(=O)c1noc2c1CCCCC2)c1ccccc1 (centres undefined) | inactive

**Query** Dear all, I need the recorded test outcome for `CC(=O)OCCNc1cc(N2CCN(C)CC2)c2noc3c2c1C(=O)c1ccccc1-3` , thank you.
**Result** active

**Query** Name the outcome recorded for `C=CCn1c(COc2ccc(CC)cc2)nnc1SC/C(O)=C(\C#N)c1nc2ccccc2[nH]1` in the assay.
**Result** inactive

**Query** Look up the recorded call for `CC(=O)CCc1c(C)[nH]c2ccc(NC(C)=O)cc2c1=O` in this test.
**Result** inactive

====

- protocol: RAM signaling pathway blockade in yeast – S. cerevisiae, Pdr1DBD-CYC8 efflux-inhibited sensitized strain, primary screen (AID 1298);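 note: 0% = DMSO untreated cells without growth and 100% = 10 µM 1-NA-PP1 full growth; higher means more yeast growth rescued from 5-FOA killing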
- experimental-setup: S. cerevisiae cbk1-as DSE1-URA3 strain, 5-FOA growth OD615, 2 d; at 50 µM; active compounds read high
value-kind: RAM network inhibition (%)
Quick reminder: number only, in %, skip the unit.

Here are 4 compounds together with their reported answers.
CCOCC(=O)Nc1nc2c(s1)C(=O)CC(C)(C)C2 | 0.05
O=C(NCc1ccco1)N1c2ccccc2Sc2ccccc21 | 4.32
Cc1ccc(S(=O)(=O)c2nc(-c3ccco3)oc2SCC(=O)NCC2CCCO2)cc1 (stereo unspecified) | 2.72
Cc1cc(C)n2nc(S(=O)(=O)N(CC(C)C)CC(C)C)nc2n1 | 0.22

**Query** Determine its reported RAM network inhibition: `CCN(CC)C(=O)c1ccc(CS(=O)(=O)c2ccc(OC)cc2)o1`
**Result** 3.14

**Query** Supply reported RAM network inhibition belonging to this compound: O=C(O)C1CC(=O)N(CCOc2ccccc2)C1 (stereo unspecified)
**Result** 1.17

**Query** Let me know recorded RAM network inhibition for Cc1ccc(CNC(=O)C2CCCN(S(=O)(=O)c3cnc[nH]3)C2)cc1 (stereo unspecified) , thanks.
**Result** 1.04

**Query** Kindly indicate its recorded RAM network inhibition. Item: `Cc1ccc(NC(=O)CNS(=O)(=O)c2cccs2)cc1F`
**Result** -0.53

**Query** Using the record for `O=C(NCc1ccc(F)cc1)c1cc2ccccn2n1` , state its measured RAM network inhibition.
**Result** 1.1

**Query** For `CCOC(=O)N1CCC(c2cc(=O)n3[nH]c(C)c(-c4ccc(F)cc4)c3n2)CC1` , write its RAM network inhibition.
**Result** 0.41

**Query** Give RAM network inhibition for `CC(C)NC(=O)c1ccc2c(c1)nnn2C`
**Result** 1.32

====

- protocol: doxorubicin toxicity protection in MRP-1 cells – H69AR cells, CellTiter-Glo, duplicate, MRP-1 activator project, pilot screen (AID 807);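 note: compound pretreatment 18-22 h then 72 h combined with doxorubicin; 0% = doxorubicin alone and 100% = vehicle without doxorubicin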
- experimental-setup: H69AR viability with doxorubicin, CellTiter-Glo luminescence; at 10 µM; active compounds read high
The reader will find reported viability increase values listed item by item below.
The reply should contain only the number, in %.

CC1(C)Cc2c(sc3c2c(=N)n(Cc2ccco2)c(=O)n3Cc2ccc(Cl)cc2)CO1 | -4.55
c1nc(NCC2CCCO2)c2[nH]cnc2n1 (stereo not drawn) | 0.98
CCOCCCNC(=O)C(NC(=O)c1ccccn1)c1ccc(C)cc1 (stereo not drawn) | -0.13

**Query** Tell us which viability increase value is on record for CC1(C)NC(=O)N(CC(O)COc2cccc(F)c2)C1=O (stereo not drawn)
**Result** -0.02

**Query** Give the measured viability increase for COc1ccc(C2CC(c3ccc(C)cc3)Nc3ncnn32)cc1 (stereo not drawn)
**Result** -0.88

**Query** Please give measured viability increase of the following entry: `CCOn1c(=O)c(=O)n(OCc2ccccc2)c2ccccc21`
**Result** -3.35

====

- protocol: viability of PTEN-null HCT116 cells – cell-based, HCT116 clonal line, CellTiter-Glo, pilot screen (AID 824);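 note: 0% = 20 µM Hyamine control and 100% = vehicle cell control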
- experimental-setup: HCT116 PTEN-deleted viability, 60 h, at 10 µM, active compounds read low
Results filed as inconclusive are left out.
Consider the cut-off 90%. If the recorded viability is strictly smaller, the label is true (1); if not, the label is false (0).

COc1ccc(Nc2ncnc3c2cnn3-c2ccccc2)cc1OC | false (0)

**Query** Confirm or reject: viability of `CCCCNC(=O)CCCn1c(=O)[nH]c2ccc(Br)cc2c1=O` lies strictly below 90%
**Result** false (0)

**Query** Identify whether the compound `CCOCCCNC(=O)Cn1cc2c(n1)CCCCC2` records viability below 90%.
**Result** false (0)

**Query** viability strictly < 90% for this compound? `Cc1cc(N2CCOCC2)c2c(N)c(Br)cc(C)c2n1`
**Result** true (1)

**Query** Record `CCOC(=O)c1ccc(NS(=O)(=O)c2ccc3c(c2)oc(=O)n3C)cc1` : is its viability strictly below 90%?
**Result** true (1)

**Query** Lab note: confirm whether the reported viability for this compound is below 90%, equality not counting. compound: CCC1CCCCN1CCNS(=O)(=O)c1ccc2c(c1)oc(=O)n2C (configuration not stated)
**Result** false (0)

**Query** Item `CCCCNC(=O)Cn1c(=O)n(C)c2ccccc21` : viability beneath 90%, strictly?
**Result** false (0)

**Query** Identify whether the compound `CCOc1ccc(-c2nnc(N(CC)C(=O)C3CCC3)s2)cc1` records viability below 90%.
**Result** true (1)

**Query** For CCOc1ccc(-n2c(Cc3cc(=O)[nH]c(=O)[nH]3)nnc2SC(C)C(=O)OC)cc1 (configuration not stated) , is the recorded viability below the cut-off of 90%?
**Result** false (0)

====

- protocol: S. cerevisiae growth inhibition in restrictive medium, OD615, pilot screen, restrictive growth control, yeast lifespan reduction project (AID 706);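 note: modified DeaD lifespan yeast strain shifted to restrictive glucose medium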
- experimental-setup: OD615, 48 h, at 10 µM, active compounds read high
Active and inactive are the calls of the source.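 How the source made its calls: active means growth inhibition above a set limit, 3 SD over mean compound inhibition, in both replicates (cut at about 43% in these data); inconclusive means above the limit in only one replicate; inactive means at or below the limit in both replicates.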
value-kind: growth inhibition

Below: 10 compounds and their reported growth inhibition.
COCCCN1C(=O)C(=O)/C(=C(/O)c2ccc(OCC(C)C)cc2C)C1c1cccnc1 (stereo unspecified) | 15.7% (inactive)
CC1CCN(C(=O)C(Cc2ccccc2)n2cccc2)CC1 (stereo unspecified) | -8.94% (inactive)
CC1CC(C)CN(Cc2nc3c(c(=O)n(C)c(=O)n3C)n2Cc2ccccc2Cl)C1 (stereo unspecified) | -4.42% (inactive)
CCCC(=O)NCCCc1nc2ccccc2n1C(C)C | -23.6% (inactive)
CCCc1nc(N)c(C#N)c(-c2cccnc2)c1CC | -4.83% (inactive)
CC(C)c1ccc(OC(=O)NCCO)cc1 | -4.21% (inactive)
CCOC(=O)C1=C(CS(=O)(=O)c2ccc(F)c(C)c2)NC(=O)NC1c1ccc(O)c(O)c1 (stereo unspecified) | -9.4% (inactive)
CCOc1ccc(N(CC(=O)OC)S(=O)(=O)c2ccc(OC)c(OC)c2)cc1 | -4.04% (inactive)
C=CCc1ccccc1OCCCCN1CCCC1 | -3.4% (inactive)
COC(=O)Cc1cc(=O)[nH]c(Nc2nc3ccccc3o2)n1 | 1.2% (inactive)

**Query** Identify measured growth inhibition corresponding to `N#C/C(C(=O)c1ccccc1)=C1/CCCN1`
**Result** -8.62% (inactive)

====

- protocol: growth suppression of yeast trafficking mutant, preliminary HTS, modulators of trafficking downstream of Golgi apparatus project, 1536-format plate, OD 615 nm (AID 637)
- experimental-setup: yeast transport mutant growth, absorbance 615 nm, 18 h; active compounds read high
# Lookup of reported inhibition keyed by entry
Please reply with the bare figure in % and do not write the unit itself.

Recorded inhibition, per entry:
N#C/C(C(=O)N1CCOCC1)=C1/SC=C(c2ccccc2)N1c1ccccc1 | 1.67
Cc1cc(=O)oc2cc(OCC#N)ccc12 | 1.33
Cc1cc(C)nc(NC(=O)c2cnc3sccn3c2=O)n1 | 4.5
COc1ccc(S(=O)(=O)Cc2ccc(C(=O)NCCc3ccc(S(N)(=O)=O)cc3)o2)cc1 | -2.67

**Query** Report inhibition for `Cc1ccc(-c2cc(C(=O)Nc3cc(C)on3)c3ccccc3n2)c(C)c1`
**Result** 3.67

**Query** For the molecule `CCN(CC)C(=O)Cn1ncc2c1-c1ccccc1OC2` , report inhibition.
**Result** 1.33

====

Some compounds, each annotated with its measured viability increase.
- protocol: doxorubicin toxicity protection in MRP-1 cells – H69AR cells, CellTiter-Glo, duplicate, MRP-1 activator project, pilot screen (AID 807);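 note: compound pretreatment 18-22 h then 72 h combined with doxorubicin; 0% = doxorubicin alone and 100% = vehicle without doxorubicin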
- experimental-setup: H69AR viability with doxorubicin, CellTiter-Glo luminescence; at 10 µM; active compounds read high
Give the value in % but do not write % after it.

Examples from the recorded data:
Clc1cccc(N2CCN(Cc3nc(-c4ccccc4)no3)CC2)c1 | -2.61
COc1ccc(CCNc2oc(COc3ccccc3Cl)nc2C#N)cc1OC | -1.73
O=C(NCC1CCCO1)C1CCN(S(=O)(=O)c2cccc3cccnc23)CC1 (stereo not drawn) | -1.56
CC1(C)CC(=O)c2cnc(NC(=O)CCc3ccccc3)nc2C1 | 1.81
CCOC(=O)c1ccc(N2Cc3cc(C)c(C)cc3C2)cc1O | 2.66
COc1ccc(-c2nc(N3CCCC3)[nH]c(=O)c2C#N)cc1 | -0.94
CCOCCCNC(=O)C(c1ccc(C)cc1)N(Cc1ccc2c(c1)OCO2)C(=O)CNC(C)=O (stereo not drawn) | 0.84
COc1ccc(C2N(c3cc(Cl)ccc3OC)C(=O)C3CCCN32)cc1 (stereo not drawn) | -1.89

**Query** Give viability increase for Cc1c(C(=O)OCCOC(C)C)[nH]c2c1C(=O)CC(c1ccco1)C2 (stereo not drawn)
**Result** -4.69

**Query** Given CC1=C(C(=O)Nc2cccnc2)C(c2ccc(C(C)C)cc2)n2ncnc2N1 (stereo not drawn) , respond with its viability increase.
**Result** -3.03

**Query** Respond only with viability increase recorded for `CCOC(=O)c1c(C)oc2ccc(OC(=O)N3CCOCC3)cc12`
**Result** -1.36

**Query** Please report the measured viability increase for `O=c1c(-c2ccccc2)coc2c(CN3CCOCC3)c(O)ccc12`
**Result** -4.13

**Query** Given the compound `CC1CCN(c2oc(-c3ccccc3F)nc2C#N)CC1` , write its reported viability increase.
**Result** 0.34

**Query** Item COc1ccc(OC)c2sc(NC(=O)C3COc4ccccc4O3)nc12 (stereo not drawn) : provide viability increase
**Result** -3.63

**Query** Complete the entry with viability increase for `Cc1ccc(-n2c3c(cc(C(=O)O)c2=O)C(=O)CC(C)(C)C3)cc1`
**Result** -3.48

**Query** Hello, please tell me recorded viability increase for this one: CCSc1nc(O)c(CC)c(=O)n1C(C)CC (stereo not drawn)
**Result** -0.54

**Query** Write down viability increase measured for item CC(=O)C1C(c2ccc(Cl)cc2)NC(=O)NC1(O)C(F)(F)F (stereo not drawn)
**Result** -0.16

**Query** Identify measured viability increase associated with `COc1ccccc1-n1c(=O)[nH]c2c(C(N)=O)nc(CC(C)C)nc21`
**Result** -2.94

**Query** For the compound `O=C(Oc1cccnc1)c1cccc(Cl)c1` , give its measured viability increase value.
**Result** -0.55

**Query** For the compound `O=C(c1ccc2snnc2c1)N1CCOCC1` , report viability increase.
**Result** 0.28
